# Test system: NCI-H522 lung
# Method summary: NCI-60 one-dose screen, 48 h
# Condition description: 10 µM unless noted
This is part of a sample that, as a whole, favours compounds with a hit. Of some 83,000 tested, about 20% had one in any assay. Active and inactive are the calls of the source. The calls were made as follows: active = growth percent below 10; inactive = the rest.
Please answer using one outcome listed in Y (active), N (inactive)

Query string: Per the assay record, what outcome was assigned to `COc1ccc(Cl)cc1Nc1nc(C(F)(F)F)ccc1C(=O)NN` ?
Result string: N

Query string: Per the records of this test, what outcome belongs to C=CCN1C(=O)/C(=c2\sc3n(c2=O)C2C(NN=3)N(CC)C(=O)N2CC)c2ccccc21 (configuration not stated) ?
Result string: Y

Query string: What did this assay record as the result for `C=C1C(=O)O[C@H]2[C@H]1CC/C(COC(=O)NCc1cn(C)c3ccccc13)=C\CC[C@@]1(C)O[C@@H]21` ?
Result string: Y

Query string: I would be grateful if you could indicate the recorded call for `S=C(Cc1ccccc1)N1CCN(c2ccccc2Cl)CC1` .
Result string: N

Query string: What is the recorded call for this compound in the test? `O=C(Nc1cccc(-n2ccc3c(NC(=O)c4ccccc4)nccc32)c1)c1ccc(N2CCOCC2)c(C(F)(F)F)c1`
Result string: Y

Query string: Which outcome was entered for the compound `O=C(Nc1ccccc1)c1cc2ccccc2s1` in this test?
Result string: N

Query string: I'd appreciate the recorded outcome for `C=C1C(=O)O[C@H]2[C@H]1CC/C(COC(=O)N[C@@H](Cc1c[nH]c3ccccc13)C(=O)OC)=C\CC[C@@]1(C)O[C@@H]21` from this test.
Result string: Y

Query string: In this assay, the call recorded for `Cc1ccc(NC(=O)c2sc3nc4c(cc3c2N)C(=O)CCC4)cc1Cl` was what?
Result string: N

Query string: Just curious, what result did `O=C(CC(=O)c1cccc(Cl)c1)c1cccc(Cl)c1` get here?
Result string: N

Query string: Status in this test for `COc1ccc(/C=C(\C#N)c2cc(OC)c(OC)c(OC)c2)cc1` ?
Result string: Y

Query string: # outcome recorded in this test, key = O=C1OCC2=C1C(c1ccccc1)c1cc3c(cc1N2CCO)CCC3 (configuration not stated)
Result string: Y

Query string: What was the test verdict on `C#Cc1cccc(Nc2nc3cc([N+](=O)[O-])ccc3nc2Nc2ccc(O)cc2)c1` ?
Result string: Y

Query string: // outcome(item) with item = `COc1ccc2nc3ccccc3c(NCc3ccc(C)cc3)c2c1`
Result string: N

Query string: Test call, this compound: CC(NC(=O)c1ccccc1)C(=O)Nc1ccccc1 (configuration not stated)
Result string: N

Query string: Assay result, entry `CC1=C(/C=C/C(C)=C/C=C(C(=O)O)\C(C)=C\C(=O)O)C(C)(C)CCC1` — outcome?
Result string: N

Query string: Which outcome was assigned to CC(C)c1ccc2c(c1)CCC1C2CCCC1(C)NCc1ccccc1 (configuration not stated) in this test?
Result string: Y

Query string: Give the logged outcome of this assay for the following compound: `CC(=O)Oc1ccccc1C(=O)Nc1ncc([N+](=O)[O-])s1`
Result string: Y

Query string: Dear all, I need the recorded test outcome for `COc1ccc(-c2nc3c(c(-c4ccc(Cl)cc4)nn3-c3ccccc3)c(-c3ccc(O)cc3)c2C#N)cc1` , thank you.
Result string: N

Query string: Recorded test outcome, item CCN(CC)CCCC(C)Nc1c(-c2ccccc2)cnc2cc(Cl)ccc12 (configuration not stated)
Result string: N

Query string: Each compound tested received a call. Report the one for `O=C(Nc1ccc(-n2ccc3c(NC(=O)c4ccccc4)nccc32)cc1)c1ccc(N2CCOCC2)c(C(F)(F)F)c1` .
Result string: N

Query string: Called result for `CNC(=O)c1c(NC(=O)c2ccc(C(C)C)cc2)sc2c1CCC(=O)C2`
Result string: Y

Query string: Status in this test for `COc1ccc(-c2nn(C(=O)NCCN(C)C)cc2-c2ccncc2)cc1Cl` ?
Result string: N

Query string: Query: recorded result category for `Cc1ccsc1C(=O)CC(=O)C(F)(F)C(F)(F)C(F)(F)F` in this test
Result string: N

Query string: Which outcome did this test record for the compound `CC1(C)CC(=O)c2cc3c(N)c(C(=O)Nc4ccc(Cl)cc4)sc3nc2C1` ?
Result string: N

Query string: What is the recorded call for this compound in the test? `Cc1ccc(C)c(NC(=O)c2sc3c(=O)[nH]cnc3c2C)c1`
Result string: N

Query string: Hi, sorry to bother you, what did the test record for `CC1=C(O)C(=O)CC1` ?
Result string: N

Query string: # fetch the recorded call for `Cc1cc(-c2ccccc2)on1` here
Result string: N

Query string: Could you please tell me the result logged for `CCn1c(Cc2ccccc2Nc2c(Cl)cccc2Cl)nnc1SCC(=O)Nc1ccccc1C(F)(F)F` in this assay?
Result string: N

Query string: Per the assay record, what outcome was assigned to `CCOC(=O)c1cc(N)nc2ccccc12` ?
Result string: N

Query string: For `COc1ccc(-c2cc(-c3ccc(OC)cc3)c3sc(=O)[nH]c3n2)cc1` , which call appears in the assay record?
Result string: N

Query string: Answer briefly: the call reported for `Cc1cc(N)cc(C)c1-c1c(Br)cc(N)cc1Br` in this assay.
Result string: Y

Query string: Look up the recorded call for `COc1cccc(-c2nc3sccn3c2-c2ccnc(NCCN3CCCN(C)S3(=O)=O)n2)c1` in this test.
Result string: N

Query string: I would be grateful if you could indicate the recorded call for `Clc1ccc(-c2cnc3c(-c4ccnc(N5CCNCC5)c4)cnn3c2)cc1` .
Result string: Y

Query string: Field: outcome | Entry: `Cn1cnc([N+](=O)[O-])c1S(=O)(=O)Oc1cccc2ccccc12`
Result string: Y

Query string: Please indicate how the test categorized `O=C1/C(=C/c2cc(F)cc(F)c2)Cc2cc(F)cc(F)c21` .
Result string: N

Query string: Tell me the assay call for `CCc1c(C)c2ccc(O)c(-c3cc(-c4ccccc4)c(C#N)c(=O)[nH]3)c2oc1=O` please.
Result string: N

Query string: Hey, what did the test say about CC(=O)CC(c1ccc([N+](=O)[O-])cc1)c1c(O)c2ccccc2oc1=O (configuration not stated) ?
Result string: N

Query string: How was `COc1ccc(-c2nc(SCCC(C)C)nc(Nc3ccc(C(=O)O)cc3)c2C#N)cc1` classified in this test?
Result string: N

Query string: Short answer needed: outcome of this test for `C[N+](C)(C)CC(=O)N/N=C\c1ccco1` ?
Result string: N

Query string: What is the recorded call for this compound in the test? `CN1C(=O)C(C(=O)/C=C/c2ccccc2C(=O)O)C(=O)N(C)C1=O`
Result string: N

Query string: Called result for COc1ccc2c(c1)N(Cc1ccc(Cl)cc1)CCC2N1CCCC1=O (configuration not stated)
Result string: N

Query string: How was `O=C(Nc1cccc(N=Cc2c(O)ccc3ccccc23)c1)c1ccccc1` classified in this test?
Result string: N
